# Test system: K562
# ASSAY NAME: Cytotoxicity against human K562 cells after 48 hrs by MTT assay
# Format: functional, cell-based
# ASSAY CONTEXT: K562, 48 h
MEASURED METRIC: IC50

COMPOUND STRING | MEASURED METRIC | RESULT VALUE
O=c1cc2n(CCN3CCOCC3)c3ccccc3nc-2c2ccccc12 | IC50 | > 40 µM
O=c1cc2n(CCCN3CCCCC3)c3ncccc3nc-2c2ccccc12 | IC50 | 38.4 µM
CN(C)CCn1c2cc(=O)c3ccccc3c-2nc2ccccc21 | IC50 | 24.6 µM
CN(C)CCCn1c2cc(=O)c3ccccc3c-2nc2ccccc21 | IC50 | 5.93 µM

Request: Print K562 IC50 for O=c1cc2n(CCCN3CCCC3)c3ccccc3nc-2c2ccccc12 .
Response: 25.2 µM

Request: Print K562 IC50 for CN1CCN(CCCn2c3cc(=O)c4ccccc4c-3nc3ccccc32)CC1 .
Response: 24 µM

Request: Print K562 IC50 for COc1ccc2c(c1)nc1c3ccc(OC)cc3c(=O)cc-1n2CCCN(C)C .
Response: 22 µM

Source: ChEMBL document CHEMBL3407378
